Assay: Relative measure of lipophilicity was determined by using 4'-(9-acridinylamino)-methanesulfonanilide as internal standard
Type: physicochemical
Conditions: octanol/water
Give Rm for every item shown.
Give the figure only, with no unit attached.

Q: Please look up its Rm: O=C(Cc1cccc2c(=O)c3ccccc3oc12)NS(=O)(=O)c1ccccc1
Result: 0.51

Q: Please look up its Rm: O=C(O)C(F)c1cccc2c(=O)c3ccccc3oc12 (stereo not drawn)
Result: 0.75

Q: Please look up its Rm: CCOP(=O)(O)Cc1cccc2c(=O)c3ccccc3oc12
Result: -0.04

Q: Please look up its Rm: O=C(O)C(O)c1cccc2c(=O)c3ccccc3oc12 (stereo not drawn)
Result: 0.04

Q: Please look up its Rm: NC(C(=O)O)c1cccc2c(=O)c3ccccc3oc12 (stereo not drawn)
Result: -0.53

Q: Please look up its Rm: Cc1ccc2c(=O)c3cccc(CC(=O)O)c3oc2c1C
Result: 0.49

Q: Please look up its Rm: O=C(O)CCc1cccc2c(=O)c3ccccc3oc12
Result: 0.7

Q: Please look up its Rm: O=c1c2ccccc2oc2c(CS(=O)(=O)O)cccc12
Result: -0.59

Q: Please look up its Rm: N=C(N)SCc1cccc2c(=O)c3ccccc3oc12
Result: -0.2

Q: Please look up its Rm: CC(C(=O)O)c1cccc2c(=O)c3ccccc3oc12 (stereo not drawn)
Result: 0.85

Q: Please look up its Rm: Cc1cccc2c(=O)c3cccc(C(C)C(=O)O)c3oc12 (stereo not drawn)
Result: 0.88

Q: Please look up its Rm: O=C(O)Cc1cccc2c(=O)c3ccccc3oc12
Result: 0.64

Q: Please look up its Rm: O=C(O)COc1cccc2c(=O)c3ccccc3oc12
Result: 0.21

Q: Please look up its Rm: COC(C(=O)O)c1cccc2c(=O)c3ccccc3oc12 (stereo not drawn)
Result: 0.49

Q: Please look up its Rm: O=c1c2ccccc2oc2c(CP(=O)(O)O)cccc12
Result: -0.48

Q: Please look up its Rm: CN(C)CCOC(=O)Cc1cccc2c(=O)c3ccccc3oc12
Result: -0.24

Q: Please look up its Rm: CN(C)CCNC(=O)Cc1cccc2c(=O)c3ccccc3oc12
Result: -0.27

Q: Please look up its Rm: O=C(O)c1cccc2c(=O)c3ccccc3oc12
Result: 0.49

---

System: Mus musculus
Assay: Optimal dose to achieve the level of activity cited in colon 38 tumors after intraperitoneal administration in mice.
Format: functional
value type: OD (mg/kg)
Give the quantity in mg/kg, number only.

Q: Recall the recorded OD for N=C(N)SCc1cccc2c(=O)c3ccccc3oc12 with Mus musculus and state it.
Result: 220

Q: Recall the recorded OD for CCOP(=O)(O)Cc1cccc2c(=O)c3ccccc3oc12 with Mus musculus and state it.
Result: 750

Q: Recall the recorded OD for O=C(O)Cc1cccc2c(=O)c3ccccc3oc12 with Mus musculus and state it.
Result: 220

Q: Recall the recorded OD for O=C(O)C(F)c1cccc2c(=O)c3ccccc3oc12 (configuration not stated) with Mus musculus and state it.
Result: 750

Q: Recall the recorded OD for Cc1cccc2c(=O)c3cccc([C@@H](C)C(=O)O)c3oc12 with Mus musculus and state it.
Result: 220

Q: Recall the recorded OD for CC(C(=O)O)c1cccc2c(=O)c3ccccc3oc12 (configuration not stated) with Mus musculus and state it.
Result: 500

Q: Recall the recorded OD for Cc1cccc2c(=O)c3cccc([C@H](C)C(=O)O)c3oc12 with Mus musculus and state it.
Result: 65

Q: Recall the recorded OD for O=C(O)COc1cccc2c(=O)c3ccccc3oc12 with Mus musculus and state it.
Result: 750

Q: Recall the recorded OD for NC(C(=O)O)c1cccc2c(=O)c3ccccc3oc12 (configuration not stated) with Mus musculus and state it.
Result: 750

Q: Recall the recorded OD for COC(C(=O)O)c1cccc2c(=O)c3ccccc3oc12 (configuration not stated) with Mus musculus and state it.
Result: 750

Q: Recall the recorded OD for CN(C)CCOC(=O)Cc1cccc2c(=O)c3ccccc3oc12 with Mus musculus and state it.
Result: 330

Q: Recall the recorded OD for O=c1c2ccccc2oc2c(CP(=O)(O)O)cccc12 with Mus musculus and state it.
Result: 750

---

Give Range for every item shown.
Assay: Range of dose (highest nontoxic to minimum effective) over which 50-90% necrosis was achieved in mice
Set-up: unit not given here
Give the figure only, with no unit attached.

Q: Please look up its Range: Cc1cccc2c(=O)c3cccc([C@@H](C)C(=O)O)c3oc12
Result: 220

Q: Please look up its Range: CC(C(=O)O)c1cccc2c(=O)c3ccccc3oc12 (centres undefined)
Result: 500

Q: Please look up its Range: Cc1cccc2c(=O)c3cccc(C(C)C(=O)O)c3oc12 (centres undefined)
Result: 150

Q: Please look up its Range: Cc1ccc2c(=O)c3cccc(CC(=O)O)c3oc2c1C
Result: 30

---

Test system: Mus musculus
Experiment: Optimal dose to achieve the level of activity cited in colon 38 tumors after intraperitoneal administration in mice.
Assay type: functional
Give OD for every item shown.
Give the quantity in mg/kg, number only.

Q: Please look up its OD: Cc1cccc2c(=O)c3cccc(C(C)C(=O)O)c3oc12 (stereo not drawn)
Result: 150

Q: Please look up its OD: O=C(O)CCc1cccc2c(=O)c3ccccc3oc12
Result: 500

Q: Please look up its OD: O=C(O)c1cccc2c(=O)c3ccccc3oc12
Result: 220

Q: Please look up its OD: O=C(Cc1cccc2c(=O)c3ccccc3oc12)NS(=O)(=O)c1ccccc1
Result: 750

Q: Please look up its OD: Cc1ccc2c(=O)c3cccc(CC(=O)O)c3oc2c1C [VADIMEZAN]
Result: 30

Q: Please look up its OD: O=c1c2ccccc2oc2c(CS(=O)(=O)O)cccc12
Result: 330

Q: Please look up its OD: O=C(O)C(O)c1cccc2c(=O)c3ccccc3oc12 (stereo not drawn)
Result: 750

Q: Please look up its OD: CN(C)CCNC(=O)Cc1cccc2c(=O)c3ccccc3oc12
Result: 750
